// reported AUC(0-inf) per item
experiment: AUC (0 to infinity) in Sprague-Dawley rat at 5 mg/kg, po; format: ADME, organism-based; parameters: time infinity, dose 5 mg/kg, route oral; settings: plasma
// note: answer is a bare numeric in ng·h/mL

Look over these answered cases.
MOLECULAR STRING: FC(F)(F)c1ccc(-c2[nH]c(N3CCN(c4ncccc4C(F)(F)F)CC3)nc2-c2ccccc2)cc1
AUC(0-inf) [ng·h/mL]: 30

MOLECULAR STRING: C[C@@H]1CN(c2ncc(CO)cc2Cl)CCN1c1nc(-c2cc(F)c(F)c(F)c2)c(-c2ccc(C(F)(F)F)cc2)[nH]1
AUC(0-inf) [ng·h/mL]: 2460

Now look at this one.
query: Entry Fc1cc(-c2nc(N3CCN(c4ncccc4C(F)(F)F)CC3)[nH]c2-c2ccc(C(F)(F)F)cc2)cc(F)c1F : reported AUC(0-inf) = ?
result: 80

* * *

// reported bioavailability per item
assay: Bioavailability in Sprague-Dawley rat at 5 mg/kg; format: ADME, organism-based; settings: in vivo
// note: answer is a bare numeric in %

Look over these answered cases.
MOLECULAR STRING: FC(F)(F)c1ccc(-c2[nH]c(N3CCN(c4ncccc4C(F)(F)F)CC3)nc2-c2ccccc2)cc1
RESULT UNIT: %
bioavailability: 6

MOLECULAR STRING: C[C@@H]1CN(c2ncc(CO)cc2Cl)CCN1c1nc(-c2cc(F)c(F)c(F)c2)c(-c2ccc(C(F)(F)F)cc2)[nH]1
RESULT UNIT: %
bioavailability: 40

query: Entry Fc1cc(-c2nc(N3CCN(c4ncccc4C(F)(F)F)CC3)[nH]c2-c2ccc(C(F)(F)F)cc2)cc(F)c1F : reported bioavailability = ?
result: 3

* * *

molecular target: Transient receptor potential cation channel subfamily V member 1 (Rattus norvegicus, UniProt O35433); experiment: Antagonist activity at rat TRPV1 expressed in CHO cells assessed blocking of capsaicin-induced calcium influx; assay type: functional, cell-based
Sequence (O35433 whole entry): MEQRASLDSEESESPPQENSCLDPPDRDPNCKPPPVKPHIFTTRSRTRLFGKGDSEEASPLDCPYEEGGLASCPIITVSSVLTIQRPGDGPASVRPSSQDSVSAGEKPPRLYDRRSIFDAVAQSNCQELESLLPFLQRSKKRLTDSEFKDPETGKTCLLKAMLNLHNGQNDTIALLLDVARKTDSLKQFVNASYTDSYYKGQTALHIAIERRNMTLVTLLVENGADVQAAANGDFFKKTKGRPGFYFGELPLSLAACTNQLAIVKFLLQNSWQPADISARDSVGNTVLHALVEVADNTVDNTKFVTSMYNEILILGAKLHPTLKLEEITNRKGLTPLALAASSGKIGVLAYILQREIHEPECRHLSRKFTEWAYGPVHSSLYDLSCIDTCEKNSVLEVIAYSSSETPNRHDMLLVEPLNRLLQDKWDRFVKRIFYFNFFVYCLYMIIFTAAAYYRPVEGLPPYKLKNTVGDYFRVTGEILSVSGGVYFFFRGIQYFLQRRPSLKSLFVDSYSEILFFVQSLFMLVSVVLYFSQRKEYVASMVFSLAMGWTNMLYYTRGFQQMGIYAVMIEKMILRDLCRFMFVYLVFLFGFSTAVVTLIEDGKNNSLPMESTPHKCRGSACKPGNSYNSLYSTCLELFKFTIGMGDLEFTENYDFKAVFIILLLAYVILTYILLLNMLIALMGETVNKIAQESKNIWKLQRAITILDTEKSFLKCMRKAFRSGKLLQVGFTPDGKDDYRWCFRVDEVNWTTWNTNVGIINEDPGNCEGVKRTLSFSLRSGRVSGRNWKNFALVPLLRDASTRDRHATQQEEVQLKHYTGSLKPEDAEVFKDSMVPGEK
// reported IC50 per item
Dear colleague, please send the value followed by its unit.

COMPOUND: Cc1nc(N2CCN(c3ncccc3C(F)(F)F)CC2)[nH]c1-c1ccc(C(F)(F)F)cc1
IC50: 628 nM

COMPOUND: C[C@@H]1CN(c2ncc(CO)cc2Cl)CCN1c1nc(-c2ccccc2)c(-c2ccc(C(F)(F)F)cc2)[nH]1
IC50: 26 nM

COMPOUND: CC(C)N1CCN(C(=O)c2nc(N3CCN(c4ncccc4C(F)(F)F)CC3)[nH]c2-c2ccc(C(F)(F)F)cc2)CC1
IC50: 700 nM

query: Entry C[C@@H]1CN(c2ncccc2C(F)(F)F)CCN1c1nc(-c2ccccc2)c(-c2ccc(C(F)(F)F)cc2)[nH]1 : reported IC50 = ?
result: 117 nM

query: Entry OCc1cnc(N2CCN(c3nc(-c4ccccc4)c(-c4ccc(C(F)(F)F)cc4)[nH]3)CC2)c(Cl)c1 : reported IC50 = ?
result: 90 nM

* * *

biological target: Transient receptor potential cation channel subfamily V member 1 (Rattus norvegicus, UniProt O35433); experiment: Antagonist activity at rat TRPV1 expressed in CHO cells assessed blocking of acid-induced calcium influx at pH 5; type: functional, cell-based
Under this convention, yes denotes IC50 strictly below 30 nM and no denotes IC50 at or above 30 nM.

Known results for molecules:
MOLECULE: Fc1cc(F)cc(-c2nc(N3CCN(c4ncccc4C(F)(F)F)CC3)[nH]c2-c2ccc(C(F)(F)F)cc2)c1
LABEL CLASS: no
--
MOLECULE: O=C(NCC1CCCCN1)c1nc(N2CCN(c3ncccc3C(F)(F)F)CC2)[nH]c1-c1ccc(C(F)(F)F)cc1 (stereo not drawn)
LABEL CLASS: no
--
MOLECULE: CC(C)CN1CCCCC1CNC(=O)c1nc(N2CCN(c3ncccc3C(F)(F)F)CC2)[nH]c1-c1ccc(C(F)(F)F)cc1 (stereo not drawn)
LABEL CLASS: no
--
MOLECULE: C[C@@H]1CN(c2ncc(CO)cc2Cl)CCN1c1nc(-c2ccccc2)c(-c2ccc(C(F)(F)F)cc2)[nH]1
LABEL CLASS: yes
--
MOLECULE: Fc1cc(-c2nc(N3CCN(c4ncccc4C(F)(F)F)CC3)[nH]c2-c2ccc(C(F)(F)F)cc2)cc(F)c1F
LABEL CLASS: yes
--
MOLECULE: COC(=O)c1nc(N2CCN(c3ncccc3C(F)(F)F)CC2)[nH]c1-c1ccc(C(F)(F)F)cc1
LABEL CLASS: no
--
MOLECULE: C[C@@H]1CN(c2ncc(CO)cc2Cl)CCN1c1nc(-c2cc(F)c(F)c(F)c2)c(-c2ccc(C(F)(F)F)cc2)[nH]1
LABEL CLASS: yes

query: In the record for C[C@@H]1CN(c2ncccc2C(F)(F)F)CCN1c1nc(-c2ccccc2)c(-c2ccc(C(F)(F)F)cc2)[nH]1 , is IC50 less than 30 nM?
result: no
